# credit: ChEMBL document CHEMBL3352671

Target chain: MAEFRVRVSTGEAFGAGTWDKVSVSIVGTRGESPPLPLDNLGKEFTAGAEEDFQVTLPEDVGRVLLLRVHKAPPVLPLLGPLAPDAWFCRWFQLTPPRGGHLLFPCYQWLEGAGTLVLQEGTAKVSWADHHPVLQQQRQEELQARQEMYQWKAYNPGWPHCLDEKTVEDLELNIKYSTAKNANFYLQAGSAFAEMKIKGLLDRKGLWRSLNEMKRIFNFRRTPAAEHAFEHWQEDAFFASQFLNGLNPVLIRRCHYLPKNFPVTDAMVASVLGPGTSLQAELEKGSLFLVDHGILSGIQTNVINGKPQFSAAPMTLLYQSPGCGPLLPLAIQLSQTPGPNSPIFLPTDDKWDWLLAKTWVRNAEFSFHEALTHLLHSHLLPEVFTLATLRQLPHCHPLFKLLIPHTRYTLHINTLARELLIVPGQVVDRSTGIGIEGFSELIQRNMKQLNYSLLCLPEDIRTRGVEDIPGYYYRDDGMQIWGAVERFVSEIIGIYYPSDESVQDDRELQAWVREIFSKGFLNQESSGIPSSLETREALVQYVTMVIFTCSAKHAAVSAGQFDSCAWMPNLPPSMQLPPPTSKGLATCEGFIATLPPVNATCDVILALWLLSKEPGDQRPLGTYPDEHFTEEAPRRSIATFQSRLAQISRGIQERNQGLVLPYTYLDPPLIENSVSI
Provide the recorded IC50 for the entries that follow.

Task: Which IC50 is reported for this compound? `CCCCCC(=O)/C=C/C=C\CCCCCCCC(=O)O`
Result: > 100 µM

Task: Which IC50 is reported for this compound? CCCCC/C=C\C/C=C\C/C=C\C=C\C(=O)CCCC(=O)O [5-OXO-ETE]
Result: > 100 µM
